Reference source for all entries: ChEMBL document CHEMBL1137359

ASSAY_PROCEDURE: Oral bioavailability in Sprague-Dawley rat at 2 mg, po
Format: ADME, organism-based
EXPERIMENTAL_CONDITIONS: in vivo
OBSERVABLE: bioavailability

-- ask Tell me the measured bioavailability of `CCCn1c(=O)c2nc([C@]34CC[C@](C(=O)O)(CC3)CC4)[nH]c2n(CCC)c1=O` , please.
-- reply 97%

* * *

ASSAY_PROCEDURE: Clearance in Sprague-Dawley rat at 2 mg, po
Type: ADME, organism-based
EXPERIMENTAL_CONDITIONS: in vivo
OBSERVABLE: CL/F (mL/min/kg)
The answer is to be given in mL/min/kg; state only the numeric part.

-- ask Record request: CL/F value, item `CCCn1c(=O)c2nc([C@]34CC[C@](C(=O)O)(CC3)CC4)[nH]c2n(CCC)c1=O`
-- reply 2.26
